- Test system: primary human T-cells
- Test Name: T-cell proliferation assay (CellTiter-Glo)
- Assay type: cell-based
- Particulars: Homo sapiens, T-cell, 120 h; isomer A; CD3 condition, 5 days; 20 μM reference compound A1 = 100%, DMSO neutral control; read-out: Emax proliferation (% activation)
Each entry below carries its recorded Emax.
// return numeric value only (unit: %, not printed)

Molecule: COC(F)(c1nnc(-c2cc3c(cc2F)C(F)(F)C[C@H](N)C(=O)N3Cc2ccc(OC(F)(F)F)cc2)o1)C(F)(F)F (single isomer, unassigned)
System Under Test: primary human T-cells
Unit Spec: %
Test Value: 112
--
Molecule: COC(=O)N1CC2CC(c3nnc(-c4cc5c(cc4F)C(F)(F)CC(N)C(=O)N5Cc4ccc(-c5noc(C(F)(F)F)n5)cc4)o3)(C2)C1 (single isomer, unassigned)
System Under Test: primary human T-cells
Unit Spec: %
Test Value: 117

[Q] Which Emax value is on record for CC(C)(C#N)c1nnc(-c2cc3c(cc2F)C(F)(F)CC(N)C(=O)N3Cc2ccc(-n3cc(C(F)(F)F)cn3)cc2)o1 (racemic) ?
[A] 128

###

- Tested on: primary human T-cells
- Test Name: T-cell proliferation assay (CellTiter-Glo)
- Assay type: cell-based
- Particulars: Homo sapiens, T-cell, 120 h; isomer A; CD3 antibody-stimulated T-cells, CellTiter-Glo after 5 days; read-out: Tcell Proliferation CD3 EC50
Binary label based on EC50 with cut-off 600 nM: below gives YES, not below gives NO.

Observe how each entry below is paired with its result.
Compound: N[C@@H]1CC(F)(F)c2cc(F)c(-c3nnc(N4CCOC5(CC5)C4)o3)cc2N(Cc2ccc(-c3noc(C(F)(F)F)n3)cc2)C1=O (single isomer, unassigned)
Group: YES
--
Compound: CCN1CC(c2nnc(-c3cc4c(cc3F)C(F)(F)C[C@@H](N)C(=O)N4Cc3ccc(OC(F)(F)F)cc3)o2)CC(F)(F)C1 (single isomer, unassigned)
Group: YES
--
Compound: COc1ccc(-c2ccc(CN3C(=O)[C@H](N)CC(F)(F)c4cc(F)c(-c5nnc(C(C)(C)S(C)(=O)=O)o5)cc43)cc2)nc1 (single isomer, unassigned)
Group: NO
--
Compound: COc1ccc(-c2ccc(CN3C(=O)[C@H](N)CC(F)(F)c4cc(F)c(-c5nnc(C(C)(C)S(C)(=O)=O)o5)cc43)cc2)cc1 (single isomer, unassigned)
Group: YES
--
Compound: CC(C)(C#N)c1nnc(-c2cc3c(cc2F)C(F)(F)C[C@@H](N)C(=O)N3Cc2ccc(-c3ccc(C(F)(F)F)cn3)cc2)o1 (single isomer, unassigned)
Group: YES

[Q] Is EC50 strictly under 600 nM for the entry CC(C)(c1nnc(-c2cc3c(cc2F)C(F)(F)C[C@@H](N)C(=O)N3Cc2ccc(-c3ccc(C(F)(F)F)cc3)cc2)o1)S(C)(=O)=O (single isomer, unassigned) ?
[A] NO

[Q] In the record for COc1ccc(-c2ccc(CN3C(=O)[C@H](N)CC(F)(F)c4cc(F)c(-c5nnc(C(C)(C)C#N)o5)cc43)cc2)cc1 (single isomer, unassigned) , is EC50 less than 600 nM?
[A] YES

[Q] Input CC(C)(C#N)c1nnc(-c2cc3c(cc2F)C(F)(F)C[C@@H](N)C(=O)N3Cc2ccc(-c3cnn(C(F)(F)F)c3)cc2)o1 (single isomer, unassigned) ; condition: EC50 strictly below 600 nM. Does it hold?
[A] YES

[Q] is_below(EC50, 600 nM) for CC(C)(c1nnc(-c2cc3c(cc2F)C(F)(F)C[C@@H](N)C(=O)N3Cc2ccc(-c3ccc(C(F)(F)F)cn3)cc2)o1)S(C)(=O)=O (single isomer, unassigned) ?
[A] YES

[Q] State whether 600 nM exceeds EC50 recorded for CC(C)(C#N)c1nnc(-c2cc3c(cc2F)C(F)(F)C[C@@H](N)C(=O)N3Cc2ccc(-n3cc(C(F)(F)F)cn3)cc2F)o1 (single isomer, unassigned) .
[A] NO
